# Tested on: Escherichia coli (Eco, ECWT, ATCC #25922)
# ASSAY: MIC against Escherichia coli reference strain ECWT
# Assay type: cell-based
# TEST SETTINGS: ATCC25922
So I've got a bunch of compounds here, and I need their MIC values.
Numbers only; they are read as µg/mL.

Record `NCC[C@H](O)C(=O)N[C@@H]1C[C@H](N)[C@@H](O[C@H]2O[C@H](CN)CC[C@H]2N)[C@H](O)[C@H]1O[C@H]1O[C@H](CO)[C@@H](O)[C@H](N)[C@H]1O` has Escherichia coli (Eco, ECWT, ATCC #25922) MIC equal to 1

Record `[H]/N=C(/N)N[C@H]1[C@H](O)[C@@H](O)[C@H](O[C@@H]2O[C@@H](C)[C@](O)(C=O)[C@H]2O[C@@H]2O[C@@H](CO)[C@H](O)[C@@H](O)[C@@H]2NC)[C@@H](N/C(N)=N\[H])[C@@H]1O` has Escherichia coli (Eco, ECWT, ATCC #25922) MIC equal to 4

Record `NC[C@H]1O[C@H](O[C@H]2[C@H](O)[C@@H](O[C@H]3O[C@H](CO)[C@@H](O)[C@H](N)[C@H]3O)[C@H](N)C[C@@H]2N)[C@H](N)C[C@@H]1O` has Escherichia coli (Eco, ECWT, ATCC #25922) MIC equal to 1

----------
# Test system: Pseudomonas aeruginosa (Pae, PAWT, ATCC #27853)
# ASSAY: MIC against Pseudomonas aeruginosa reference strain PAWT
# Format: cell-based
# TEST SETTINGS: ATCC27853; Pseudomonas aeruginosa wild type PAWT
OBSERVED PROPERTY: MIC (µg/mL)
Numbers only; they are read as µg/mL.

Measured MIC of `[H]/N=C(/N)N[C@H]1[C@H](O)[C@@H](O)[C@H](O[C@@H]2O[C@@H](C)[C@](O)(C=O)[C@H]2O[C@@H]2O[C@@H](CO)[C@H](O)[C@@H](O)[C@@H]2NC)[C@@H](N/C(N)=N\[H])[C@@H]1O` : 16

Measured MIC of `NCC[C@H](O)C(=O)N[C@@H]1C[C@H](N)[C@@H](O[C@H]2O[C@H](CN)CC[C@H]2N)[C@H](O)[C@H]1O[C@H]1O[C@H](CO)[C@@H](O)[C@H](N)[C@H]1O` : 0.5

Measured MIC of `NC[C@H]1O[C@H](O[C@H]2[C@H](O)[C@@H](O[C@H]3O[C@H](CO)[C@@H](O)[C@H](N)[C@H]3O)[C@H](N)C[C@@H]2N)[C@H](N)C[C@@H]1O` : 0.25

----------
So I've got a bunch of molecules here, and I need their MIC PAWT values.
# System: Pseudomonas aeruginosa (Pae, PAWT, ATCC #27853)
# ASSAY: MIC against Pseudomonas aeruginosa reference strain PAWT
# Format: cell-based
# TEST SETTINGS: Pseudomonas aeruginosa wild type PAWT
Numbers only; they are read as µg/mL.

Record `CC(C)[C@H](N)C(=O)NC[C@H]1O[C@H](O[C@@H]2[C@H](F)[C@H](O[C@H]3O[C@H](CN)[C@@H](O)[C@H](O)[C@H]3O)[C@@H](N)C[C@H]2NC(=O)[C@@H](O)CCN)[C@H](O)[C@@H](N)[C@@H]1O` has Pseudomonas aeruginosa (Pae, PAWT, ATCC #27853) MIC PAWT equal to 4

Record `NCC[C@H](O)C(=O)N[C@@H]1C[C@H](N)[C@@H](O[C@H]2O[C@H](CN)[C@@H](O)[C@H](O)[C@H]2O)[C@@H](F)[C@H]1O[C@H]1O[C@H](CNC2CC2)[C@@H](O)[C@H](N)[C@H]1O` has Pseudomonas aeruginosa (Pae, PAWT, ATCC #27853) MIC PAWT equal to 1

Record `NC[C@H]1O[C@H](O[C@H]2[C@H](O)[C@@H](O[C@H]3O[C@H](CO)[C@@H](O)[C@H](N)[C@H]3O)[C@H](N)C[C@@H]2N)[C@H](N)[C@@H](O)[C@@H]1O` has Pseudomonas aeruginosa (Pae, PAWT, ATCC #27853) MIC PAWT equal to 16

----------
So I've got a bunch of molecules here, and I need their MIC PAWT values.
# System: Pseudomonas aeruginosa (Pae, PAWT, ATCC #27853)
# ASSAY: MIC against Pseudomonas aeruginosa reference strain PAWT
# Assay type: cell-based
# TEST SETTINGS: Pseudomonas aeruginosa wild type PAWT
Numbers only; they are read as µg/mL.

Measured MIC PAWT of NCCC(O)C(=O)NC1CC(N)C(OC2OC(CN)C(O)CC2N)C(F)C1OC1OC(CNCC(O)CN)C(O)C(N)C1O (stereo not drawn) : 0.25

Measured MIC PAWT of `NCC[C@H](O)C(=O)N[C@@H]1C[C@H](N)[C@@H](O[C@H]2O[C@H](CN)[C@@H](O)[C@H](O)[C@H]2O)[C@@H](F)[C@H]1O[C@H]1O[C@H](CNC(=O)[C@H](N)CCCNC(N)=O)[C@@H](O)[C@H](N)[C@H]1O` : 4

Measured MIC PAWT of `NC[C@@H]1O[C@H](O[C@H]2[C@@H](O)[C@H](O[C@@H]3[C@@H](O)[C@H](N)C[C@H](N)[C@H]3O[C@H]3O[C@H](CN)[C@@H](O)[C@H](O)[C@H]3N)O[C@@H]2CO)[C@H](N)[C@@H](O)[C@@H]1O` : 32

Measured MIC PAWT of NCCCNCC1OC(OC2C(NC(=O)C(O)CCN)CC(N)C(OC3OC(CN)C(O)CC3N)C2F)C(O)C(N)C1O (stereo not drawn) : 0.25

Measured MIC PAWT of NCCC(O)C(=O)NC1CC(N)C(OC2OC(CN)C(O)CC2N)C(F)C1OC1OC(CNC2CNC2)C(O)C(N)C1O (stereo not drawn) : 0.25

----------
# Tested on: Pseudomonas aeruginosa PR1 (clinical isolate with intermediate aminoglycoside resistance)
# ASSAY: MIC against Pseudomonas aeruginosa clinical isolate PR1
# Format: cell-based
# TEST SETTINGS: Pseudomonas aeruginosa resistant strain PR1
OBSERVED PROPERTY: MIC (µg/mL)
Numbers only; they are read as µg/mL.

Measured MIC of [H]/N=C(/N)N[C@H]1[C@H](O)[C@@H](O)[C@H](O[C@@H]2O[C@@H](C)[C@](O)(C=O)[C@H]2O[C@@H]2O[C@@H](CO)[C@H](O)[C@@H](O)[C@@H]2NC)[C@@H](N/C(N)=N\[H])[C@@H]1O [streptomycin] : 64

Measured MIC of NC[C@H]1O[C@H](O[C@H]2[C@H](O)[C@@H](O[C@H]3O[C@H](CO)[C@@H](O)[C@H](N)[C@H]3O)[C@H](N)C[C@@H]2N)[C@H](N)C[C@@H]1O [tobramycin] : 2

Measured MIC of NC[C@@H]1CC[C@@H](N)[C@@H](O[C@H]2[C@H](O)[C@@H](O[C@H]3O[C@H](CO)[C@@H](O)[C@H](N)[C@H]3O)[C@H](N)C[C@@H]2N)O1 [dibekacin] : 4

Measured MIC of NCC[C@H](O)C(=O)N[C@@H]1C[C@H](N)[C@@H](O[C@H]2O[C@H](CN)CC[C@H]2N)[C@H](O)[C@H]1O[C@H]1O[C@H](CO)[C@@H](O)[C@H](N)[C@H]1O [arbekacin] : 8

Measured MIC of NCC[C@H](O)C(=O)N[C@@H]1C[C@H](N)[C@@H](O[C@H]2O[C@H](CN)[C@@H](O)[C@H](O)[C@H]2O)[C@H](O)[C@H]1O[C@H]1O[C@H](CO)[C@@H](O)[C@H](N)[C@H]1O [amikacin] : 8

----------
# Tested on: Pseudomonas aeruginosa PR3 (high-level, efflux-mediated, pan-aminoglycoside resistance)
# ASSAY: MIC against Pseudomonas aeruginosa clinical isolate PR3
# Assay type: cell-based
# TEST SETTINGS: Pseudomonas aeruginosa, read-out: MIC PR3
So I've got a bunch of compounds here, and I need their MIC values.
Numbers only; they are read as mg/L.

Record `NCC[C@H](O)C(=O)N[C@@H]1C[C@H](N)[C@@H](O[C@H]2O[C@H](CN)CC[C@H]2N)[C@H](O)[C@H]1O[C@H]1O[C@H](CO)[C@@H](O)[C@H](N)[C@H]1O` has Pseudomonas aeruginosa PR3 (high-level, efflux-mediated, pan-aminoglycoside resistance) MIC equal to 16

Record `NCC[C@H](O)C(=O)N[C@@H]1C[C@H](N)[C@@H](O[C@H]2O[C@H](CN)[C@@H](O)[C@H](O)[C@H]2O)[C@H](O)[C@H]1O[C@H]1O[C@H](CO)[C@@H](O)[C@H](N)[C@H]1O` has Pseudomonas aeruginosa PR3 (high-level, efflux-mediated, pan-aminoglycoside resistance) MIC equal to 64

----------
# Test system: Klebsiella pneumoniae screening panel KPWT, KR1, KR2, KR3
# ASSAY: Klebsiella pneumoniae screening panel (KPWT, KR1, KR2, KR3), reference AGs
# Assay type: cell-based
# Excerpt: Klebsiella pneumoniae (Kpn) and Escherichia coli (Eco) are gram-negative (like Pae), enteric pathogens with increasing clinical relevance. Many clinical isolates of Kpn and Eco harbor extended-spectrum beta-lactamases and are no longer sensitive to most beta-lactam antibiotics. We acquired clinical isolates of Klebsiella pneumoniae and Escherichia coli (Micromyx LLC, Kalamazoo, Mich.) and used this panel to test compounds for anti-enteric activity.
OBSERVED PROPERTY: potency against Klebsiella pneumoniae test panel

MOLECULE	TEST TARGET	MEASUREMENT
NC[C@H]1O[C@H](O[C@H]2[C@H](O)[C@@H](O[C@H]3O[C@H](CO)[C@@H](O)[C@H](N)[C@H]3O)[C@H](N)C[C@@H]2N)[C@H](O)[C@@H](O)[C@@H]1O [kanamycin A]	Klebsiella pneumoniae screening panel KPWT, KR1, KR2, KR3	limited to no activity
NC[C@H]1O[C@H](O[C@H]2[C@H](O)[C@@H](O[C@H]3O[C@H](CO)[C@@H](O)[C@H](N)[C@H]3O)[C@H](N)C[C@@H]2N)[C@H](N)[C@@H](O)[C@@H]1O [kanamycin B]	Klebsiella pneumoniae screening panel KPWT, KR1, KR2, KR3	limited to no activity
NC[C@@H]1CC[C@@H](N)[C@@H](O[C@H]2[C@H](O)[C@@H](O[C@H]3O[C@H](CO)[C@@H](O)[C@H](N)[C@H]3O)[C@H](N)C[C@@H]2N)O1 [dibekacin]	Klebsiella pneumoniae screening panel KPWT, KR1, KR2, KR3	limited to no activity
